Values were extracted from patent US20070248701A1.

Target: Phosphodiesterase PDE1
Test: Phosphodiesterase PDE1 enzyme assay
Type: biochemical, bovine
Conditions: reference compound tested concurrently, batch 70431; read-out: Concurrent IC50
reported.endpoint: pIC50
Schema: pIC50 number; meaning minus log10 of the concentration expressed in molar units.

Input line: Input CC(C)Cn1c(=O)n(C)c(=O)c2[nH]cnc21 , output reported pIC50.
Output line: 5.42

---

Biological target: Phosphodiesterase PDE5 (Homo sapiens)
Assay: Phosphodiesterase PDE5 enzyme assay
Type: biochemical
Settings: reference compound tested concurrently, batch 70681; read-out: Concurrent IC50
reported.endpoint: IC50 (µM)
Express the result in µM but write the number alone.

Input line: // fetch IC50 given entry CC(C)Cn1c(=O)n(C)c(=O)c2[nH]cnc21
Output line: 65.4

---

Target: Phosphodiesterase PDE3 (Homo sapiens)
Sequence (Q14432 whole entry): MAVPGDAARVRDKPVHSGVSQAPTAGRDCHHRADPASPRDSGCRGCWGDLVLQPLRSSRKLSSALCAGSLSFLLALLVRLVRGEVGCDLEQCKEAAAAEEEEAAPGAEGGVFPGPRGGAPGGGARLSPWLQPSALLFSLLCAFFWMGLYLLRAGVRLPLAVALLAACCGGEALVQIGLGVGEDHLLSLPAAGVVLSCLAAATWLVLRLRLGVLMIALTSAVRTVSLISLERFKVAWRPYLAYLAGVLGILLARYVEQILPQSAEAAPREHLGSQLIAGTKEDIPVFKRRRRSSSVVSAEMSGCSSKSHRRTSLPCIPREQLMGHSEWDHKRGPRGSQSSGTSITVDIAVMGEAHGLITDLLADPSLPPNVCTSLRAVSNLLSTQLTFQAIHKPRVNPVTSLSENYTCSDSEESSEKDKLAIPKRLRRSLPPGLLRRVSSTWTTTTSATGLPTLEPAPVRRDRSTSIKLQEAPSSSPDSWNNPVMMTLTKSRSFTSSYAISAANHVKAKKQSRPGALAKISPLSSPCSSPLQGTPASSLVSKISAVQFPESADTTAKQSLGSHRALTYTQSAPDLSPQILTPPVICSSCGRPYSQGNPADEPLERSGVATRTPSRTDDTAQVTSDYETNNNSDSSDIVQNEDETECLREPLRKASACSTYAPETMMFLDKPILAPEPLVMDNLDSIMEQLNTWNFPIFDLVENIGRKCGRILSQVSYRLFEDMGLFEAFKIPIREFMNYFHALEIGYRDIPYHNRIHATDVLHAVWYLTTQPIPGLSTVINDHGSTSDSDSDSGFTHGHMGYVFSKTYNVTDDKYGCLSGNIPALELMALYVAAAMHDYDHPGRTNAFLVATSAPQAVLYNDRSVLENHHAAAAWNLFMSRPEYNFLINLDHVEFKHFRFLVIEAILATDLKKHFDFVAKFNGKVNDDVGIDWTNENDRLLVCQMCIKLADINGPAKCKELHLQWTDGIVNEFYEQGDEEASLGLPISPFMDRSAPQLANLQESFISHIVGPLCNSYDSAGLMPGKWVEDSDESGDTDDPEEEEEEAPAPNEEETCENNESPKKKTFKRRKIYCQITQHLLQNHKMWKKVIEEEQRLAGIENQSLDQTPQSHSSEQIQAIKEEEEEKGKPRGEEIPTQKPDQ
Assay: Phosphodiesterase PDE3 enzyme assay
Type: biochemical
Settings: reference compound tested concurrently, batch 70679; read-out: Concurrent IC50
reported.endpoint: pIC50
In plain terms, pIC50 is the concentration in mol/L turned into minus its base-10 logarithm.

Input line: Name the recorded pIC50 of the item CC(C)Cn1c(=O)n(C)c(=O)c2[nH]cnc21 [IBMX] in your answer.
Output line: 4.68

---

Biological target: Phosphodiesterase PDE6 (Bos taurus, UniProt P11541+P23439)
Sequence (P11541 whole entry): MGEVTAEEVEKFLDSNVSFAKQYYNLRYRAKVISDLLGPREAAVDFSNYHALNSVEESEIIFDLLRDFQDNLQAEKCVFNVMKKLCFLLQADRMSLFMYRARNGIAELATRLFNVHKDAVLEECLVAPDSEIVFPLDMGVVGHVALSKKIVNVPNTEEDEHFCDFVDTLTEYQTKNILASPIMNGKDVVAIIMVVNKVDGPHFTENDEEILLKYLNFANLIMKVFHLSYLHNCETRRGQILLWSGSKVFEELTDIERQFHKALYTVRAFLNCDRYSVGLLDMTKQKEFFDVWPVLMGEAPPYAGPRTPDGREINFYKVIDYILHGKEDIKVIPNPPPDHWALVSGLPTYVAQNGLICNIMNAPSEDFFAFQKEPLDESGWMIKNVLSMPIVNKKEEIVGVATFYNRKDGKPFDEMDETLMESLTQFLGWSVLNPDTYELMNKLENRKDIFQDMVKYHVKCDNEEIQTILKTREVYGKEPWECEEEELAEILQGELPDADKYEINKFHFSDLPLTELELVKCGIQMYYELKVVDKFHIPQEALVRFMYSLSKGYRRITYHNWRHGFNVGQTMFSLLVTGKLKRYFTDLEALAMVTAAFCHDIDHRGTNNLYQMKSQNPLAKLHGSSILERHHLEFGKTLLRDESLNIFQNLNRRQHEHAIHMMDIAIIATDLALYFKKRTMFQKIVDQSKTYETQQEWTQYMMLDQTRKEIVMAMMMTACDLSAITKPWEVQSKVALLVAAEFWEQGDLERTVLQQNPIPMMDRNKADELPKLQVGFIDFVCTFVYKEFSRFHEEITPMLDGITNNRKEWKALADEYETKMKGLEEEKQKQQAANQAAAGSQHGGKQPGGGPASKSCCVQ
Sequence (P23439 whole entry): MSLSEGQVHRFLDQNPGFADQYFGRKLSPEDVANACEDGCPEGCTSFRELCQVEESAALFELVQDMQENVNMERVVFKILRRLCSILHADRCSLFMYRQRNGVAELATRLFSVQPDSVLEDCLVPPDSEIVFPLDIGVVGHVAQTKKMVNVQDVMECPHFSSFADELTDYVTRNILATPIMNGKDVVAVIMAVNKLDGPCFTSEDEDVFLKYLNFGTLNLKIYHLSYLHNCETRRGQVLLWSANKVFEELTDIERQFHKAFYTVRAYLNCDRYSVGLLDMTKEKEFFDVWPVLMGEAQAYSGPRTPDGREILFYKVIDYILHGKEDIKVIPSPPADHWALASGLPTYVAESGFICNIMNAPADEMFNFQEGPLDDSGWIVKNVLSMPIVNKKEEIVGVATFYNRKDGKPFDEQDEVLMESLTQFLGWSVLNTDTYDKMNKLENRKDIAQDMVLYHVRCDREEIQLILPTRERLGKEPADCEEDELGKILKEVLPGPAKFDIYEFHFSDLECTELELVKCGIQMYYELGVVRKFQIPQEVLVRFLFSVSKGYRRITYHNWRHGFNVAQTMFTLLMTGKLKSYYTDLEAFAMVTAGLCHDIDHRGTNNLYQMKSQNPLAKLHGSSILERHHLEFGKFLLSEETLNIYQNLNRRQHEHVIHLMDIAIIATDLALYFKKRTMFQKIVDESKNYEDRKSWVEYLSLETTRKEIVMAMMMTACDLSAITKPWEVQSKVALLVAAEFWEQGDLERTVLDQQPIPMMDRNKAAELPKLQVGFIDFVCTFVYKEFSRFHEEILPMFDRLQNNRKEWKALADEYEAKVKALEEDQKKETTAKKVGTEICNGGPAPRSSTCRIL
Assay: Phosphodiesterase PDE6 enzyme assay
Format: biochemical, bovine
Conditions: reference compound tested concurrently, batch 70682; read-out: Concurrent IC50
reported.endpoint: pIC50
# pIC50: negative log10 of molar concentration; output just the value

Input line: Answer with reported pIC50 of CCCOc1ccccc1-c1nc2nn[nH]c2c(=O)[nH]1 [Zaprinast]
Output line: 6.55
